Numbers sourced from patent US20220056043A1.

Biological target: hNLRP3 inflammasome (Homo sapiens)
Construct: endogenous in cells; host or cells: THP-1 cells, PMA-differentiated
Sequence (Q96P20 whole entry): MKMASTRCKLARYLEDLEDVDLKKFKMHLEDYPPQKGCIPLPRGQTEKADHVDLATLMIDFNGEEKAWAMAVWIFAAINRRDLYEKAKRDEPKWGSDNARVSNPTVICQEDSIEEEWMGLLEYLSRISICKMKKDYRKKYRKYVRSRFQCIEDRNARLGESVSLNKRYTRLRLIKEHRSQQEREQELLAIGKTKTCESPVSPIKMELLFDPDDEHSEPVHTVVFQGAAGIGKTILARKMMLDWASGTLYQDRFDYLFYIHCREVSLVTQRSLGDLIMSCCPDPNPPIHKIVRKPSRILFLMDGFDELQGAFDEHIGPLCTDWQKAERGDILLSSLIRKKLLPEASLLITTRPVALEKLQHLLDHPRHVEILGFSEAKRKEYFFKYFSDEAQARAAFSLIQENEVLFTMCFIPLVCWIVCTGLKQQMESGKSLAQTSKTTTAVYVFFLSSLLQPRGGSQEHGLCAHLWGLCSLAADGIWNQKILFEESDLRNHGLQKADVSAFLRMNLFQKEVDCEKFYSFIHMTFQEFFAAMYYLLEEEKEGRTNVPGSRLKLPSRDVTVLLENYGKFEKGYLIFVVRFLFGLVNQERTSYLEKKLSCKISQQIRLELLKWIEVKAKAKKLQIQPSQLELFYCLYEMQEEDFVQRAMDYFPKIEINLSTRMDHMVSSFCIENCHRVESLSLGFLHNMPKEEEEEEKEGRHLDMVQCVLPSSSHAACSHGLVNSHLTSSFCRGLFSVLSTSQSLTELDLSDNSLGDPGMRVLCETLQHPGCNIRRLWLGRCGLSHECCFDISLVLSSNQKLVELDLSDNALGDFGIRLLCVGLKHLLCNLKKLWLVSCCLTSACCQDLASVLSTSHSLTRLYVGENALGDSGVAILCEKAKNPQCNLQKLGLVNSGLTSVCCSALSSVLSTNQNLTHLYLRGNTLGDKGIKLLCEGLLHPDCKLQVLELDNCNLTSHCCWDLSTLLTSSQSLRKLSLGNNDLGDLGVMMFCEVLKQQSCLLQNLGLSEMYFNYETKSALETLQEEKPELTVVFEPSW
Test: Agonistic effect on the expression of IL-1β in THP-1 cells after PMA-induced differentiation (HTRF)
Type: cell-based
Settings: IL-1β level, PMA-differentiated THP-1 cells, 6 hours
So basically, if EC50 comes in under 0.05 µM it's fulfilled, and if it's 0.05 µM or more it's not fulfilled.

The following compounds have reported results that may help.
Nc1cc(N2CCN(c3ccccc3)CC2)c2sc(-c3ccn[nH]3)cc2n1 :: not fulfilled
Nc1cc(NC2CCCC2)c2sc(-c3ccn[nH]3)cc2n1 [Compound 110] :: fulfilled
CC1(O)CCN(CCNc2cc(N)nc3cc(-c4ccn[nH]4)sc23)CC1 :: not fulfilled
Nc1cc(NCc2ccccn2)c2sc(-c3ccn[nH]3)cc2n1 :: not fulfilled
Nc1cc(NCCN2CCOCC2)c2sc(-c3ccn[nH]3)cc2n1 :: not fulfilled
C[C@]1(O)C[C@@H](Nc2cc(N)nc3cc(-c4ccn[nH]4)sc23)C1 :: fulfilled

# ---- query compound ----
query: Please state whether EC50 is below 0.05 µM for `CN(CCO)c1cc(N)nc2cc(-c3ccn[nH]3)sc12`
result: not fulfilled

----------
Target: hTLR7 (Homo sapiens)
Construct: host or cells: HEK-hTLR7-NF-κB-Luciferase cells
Sequence (Q9NYK1 27-1049): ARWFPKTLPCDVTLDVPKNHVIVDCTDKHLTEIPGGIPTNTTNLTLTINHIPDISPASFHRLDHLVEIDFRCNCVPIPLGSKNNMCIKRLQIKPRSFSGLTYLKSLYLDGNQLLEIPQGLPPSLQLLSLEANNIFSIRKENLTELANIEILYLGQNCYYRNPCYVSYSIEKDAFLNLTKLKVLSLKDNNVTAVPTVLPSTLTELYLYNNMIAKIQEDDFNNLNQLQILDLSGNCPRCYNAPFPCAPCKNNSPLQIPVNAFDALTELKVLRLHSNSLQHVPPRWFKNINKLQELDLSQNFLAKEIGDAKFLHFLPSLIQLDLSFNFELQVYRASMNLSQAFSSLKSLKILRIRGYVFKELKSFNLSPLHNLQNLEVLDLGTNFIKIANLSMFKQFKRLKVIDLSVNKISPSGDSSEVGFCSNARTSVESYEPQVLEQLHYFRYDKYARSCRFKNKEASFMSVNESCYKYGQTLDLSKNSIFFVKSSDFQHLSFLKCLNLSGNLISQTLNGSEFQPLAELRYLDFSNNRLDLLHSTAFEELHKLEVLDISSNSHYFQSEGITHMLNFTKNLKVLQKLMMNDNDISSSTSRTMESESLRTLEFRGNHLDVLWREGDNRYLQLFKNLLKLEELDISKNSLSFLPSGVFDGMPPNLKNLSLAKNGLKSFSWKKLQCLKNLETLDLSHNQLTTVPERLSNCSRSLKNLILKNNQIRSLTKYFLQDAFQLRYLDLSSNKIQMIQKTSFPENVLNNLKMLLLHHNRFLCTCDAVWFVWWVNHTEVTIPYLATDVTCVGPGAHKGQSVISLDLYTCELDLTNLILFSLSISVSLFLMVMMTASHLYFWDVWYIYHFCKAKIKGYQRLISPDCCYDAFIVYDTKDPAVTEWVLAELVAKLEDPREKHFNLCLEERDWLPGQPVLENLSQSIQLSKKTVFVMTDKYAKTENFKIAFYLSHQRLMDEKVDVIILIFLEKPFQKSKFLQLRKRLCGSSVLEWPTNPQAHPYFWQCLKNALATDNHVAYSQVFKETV
Test: Agonistic effect on hTLR7, HEK-hTLR7-NF-κB-Luciferase reporter cells
Type: cell-based
Conditions: 16 hours
pEC50: −log10 of the molar value.
Quick reference: pEC50 of the listed items.

Examples with their reported pEC50 follow.
Nc1cc(N2CC3CC(C2)N3C=O)c2sc(-c3ccn[nH]3)cc2n1 :: < 4.00
CN1CCN(c2cc(N)nc3cc(-c4ccn[nH]4)sc23)CC1 :: < 4.00
CC(CO)(CO)CNc1cc(N)nc2cc(-c3ccn[nH]3)sc12 :: < 4.00
Nc1cc(N2CCCC(O)C2)c2sc(-c3ccn[nH]3)cc2n1 (centres unmarked) :: < 4.00

query: Entry `COCCNc1cc(N)nc2cc(-c3ccn[nH]3)sc12` : reported pEC50 = ?
result: < 4.00

----------
Target: hNLRP3 inflammasome (Homo sapiens)
Construct: endogenous in cells; host or cells: THP-1 cells, PMA-differentiated
Experiment: Agonistic effect on the expression of IL-1β in THP-1 cells after PMA-induced differentiation (HTRF)
Assay type: cell-based
Settings: IL-1β level, PMA-differentiated THP-1 cells, 6 hours
Counter-ions that a name gives are not always drawn.
So basically, if EC50 comes in under 0.08 µM it's 1, and if it's 0.08 µM or more it's -1.

The following compounds have reported results that may help.
Cc1c(-c2cc[nH]n2)sc2c(NCCN3CCOCC3)cc(N)nc12 :: -1
Nc1cc(NCC(=O)NC2CC2)c2sc(-c3ccn[nH]3)cc2n1 :: -1
Cc1noc(C)c1CNc1cc(N)nc2cc(-c3ccn[nH]3)sc12 :: 1
COCCNc1cc(N)nc2cc(-c3ccn[nH]3)sc12 [Compound 100s, hydrochloride] :: 1
Nc1cc(N2CC3CC(C2)N3)c2sc(-c3ccn[nH]3)cc2n1 :: -1
Nc1cc(NCCCNC(=O)C2CC2)c2sc(-c3ccn[nH]3)cc2n1 :: -1

# ---- query compound ----
query: Please state whether EC50 is below 0.08 µM for Nc1cc(NCC2CCOCC2)c2sc(-c3ccn[nH]3)cc2n1 [Compound 120s, hydrochloride]
result: 1
